These entries and their values trace back to paper PMC8036949.

# system name: T1, hORC1(413-511) (Homo sapiens, UniProt Q13415 413-511)
# T1 sequence: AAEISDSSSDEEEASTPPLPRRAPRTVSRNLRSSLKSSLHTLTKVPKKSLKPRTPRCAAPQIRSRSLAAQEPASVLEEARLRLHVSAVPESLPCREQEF
# method: fluorescence anisotropy; 100 mM KCl; FA: 20 mM HEPES-KOH pH 7.7, 100 mM KCl (or LiCl), 1 mM EDTA, 1 mM DTT, 25 C, 2 uM DNA, 1:1 fit; NMR: same buffer with 10% D2O, 10 uM DSS, 75 uM DNA, 25 C
# experimental context: protein: recombinant; tags: N-terminal GST (pGEX-6P-1) removed with PreScission protease; label: 5'-FAM; G4, multiple folds, 1 strand
Overview of recorded Kd for various binders
Note: unit nM is implicit; provide only the numeric part.

binder | recorded number
TGAGGGTGGGGAGGGTGGGGAA (structured_DNA) [wtPu22] | 166

-- ask Which Kd is reported for this binder? TGGGGAGGGTGGGGAGGGT (structured_DNA) [wtPu19]
-- reply 45.2
